- System: CP315
- experimental details: qHTS profiling for inhibitors of Plasmodium falciparum proliferation (AID 504749); note: nearly all actives have a fitted effect of over 60% in size
- condition label: P. falciparum in erythrocytes, SYBR Green DNA, 72 h; series mostly up to 28.7 µM
Results filed as inconclusive are left out. The source made the active and inactive calls. Calls come from the whole dose curve; as a rule, active = well fitted inhibition curve with a large enough effect; inconclusive = small, poorly fitted or top-dose-only effect; inactive = flat fitted curve, though single readings scatter.
Outcomes: T for active, F for inactive

1) O=S(=O)(O)c1ccc2nc(-c3ccccc3)[nH]c2c1 = F
2) CN1CCC(Nc2ncc3ncnc(Nc4ccc(F)c(Cl)c4)c3n2)CC1 = F
3) CN1CCCN(C(c2ccccc2)c2ccc(Cl)cc2)CC1 (stereo not given) = F
4) O=C(Nc1ccc(Cl)cc1)Nc1ccc(Cl)c(Cl)c1 = F
5) CCCCCCCCCCCCCC[N+](C)(C)C = T

###

- experimental details: qHTS of pediatric cancer cell lines to identify multiple opportunities for drug repurposing: Primary screen for TC32 cells (AID 1347089); note: nearly all actives have a fitted effect of over 60% in size
- condition label: TC32 Ewing sarcoma viability, CellTiter-Glo luminescence, 48 h; series mostly up to 45.8 µM
- Method: Drug repurposing or repositioning has been offered as a strategy for drug development in oncology programs. […] [1] Shen, M et al. Quantitative high-throughput phenotypic screening of pediatric cancer cell lines identifies multiple opportunities for drug repurposing. […] Cells were assayed in growth media at a density of 500-1,000 cells/well. […] After a 15min incubation at room temperature, samples were analyzed for luminescence intensity using a ViewLux High-throughput CCD imager equipped with clear filters.
Results filed as inconclusive are left out. Calls of active or inactive are those of the source. Calls follow the shape of the dose curve; as a rule, active = well fitted cell-killing curve with a large enough effect; inconclusive = small, poorly fitted or top-dose-only effect; inactive = flat fitted curve, though single readings scatter.
Outcomes: Yes for active, No for inactive

1) CC(C)(C)C(O)/C=C/c1ccc2c(c1)OCO2 (configuration not stated) = No
2) O=C(OCC(O)CO)c1ccccc1Nc1ccnc2c(C(F)(F)F)cccc12 (configuration not stated) = No
3) O=C(c1cc(O)c(O)c(O)c1)c1ccc(O)c(O)c1O = No
4) CCCCCOc1ccc(C2SC(=O)NC2=O)cc1OCC (configuration not stated) = No
5) CNC[C@H](O)[C@@H](O)[C@H](O)[C@H](O)CO = No
6) O=C(CCCCCCCCC#CI)Oc1ccccc1 = No
7) Oc1ccccc1 = No
8) CC(C)=CCNc1ncnc2c1ncn2[C@@H]1O[C@H](CO)[C@@H](O)[C@H]1O = Yes
9) C/C=C(/C(=C/C)c1ccc(OC(C)=O)cc1)c1ccc(OC(C)=O)cc1 = No
10) COc1ccc(CCC(C)=O)cc1 = No
11) NC(=O)NC1N=C([O][Al])NC1=O (configuration not stated) = No
12) CC1c2ccccc2CN1NC(=O)c1ccc(Cl)c(S(N)(=O)=O)c1 (configuration not stated) = No
13) NCC(=O)O = No
14) CCOC(=O)N1CCC(n2c(=O)[nH]c3cc(Cl)ccc32)CC1 = No
15) O=C1NC2CCCCN2C12CCN(CCCN1c3ccccc3CCc3ccc(Cl)cc31)CC2 (configuration not stated) = No
16) CCO[C@H](Cc1ccc(OCCc2ccc(OS(C)(=O)=O)cc2)cc1)C(=O)O = No
17) CC(=O)[C@H]1CC[C@H]2[C@@H]3C=CC4=CC(=O)CC[C@@]4(C)[C@@H]3CC[C@]12C = No
18) CC(C)(C)c1ccc(C(=O)CCCCl)cc1 = No
19) CC(=O)c1ccc(O)c(C(N)=O)c1 = No
20) Cc1ccc(O)cc1 = No
21) O=C(Nc1ccc(S(=O)(=O)N2CCOCC2)cc1)c1cc(Cl)ccc1NS(=O)(=O)c1ccc(Cl)s1 = No
22) CCOC(=O)c1cc(=O)c2c(OCC(COc3cccc4oc(C(=O)OCC)cc(=O)c34)OC(=O)[C@@H](N)CCCCN)cccc2o1 = No
23) CCOC(=O)NNc1ccc(N(CC)CC(C)O)nn1 (configuration not stated) = No
24) O=C(CS(=O)Cc1ccco1)NC/C=C\COc1cc(CN2CCCCC2)ccn1 (configuration not stated) = No
25) c1ccc2c(c1)CCc1ccccc1N2 = No
26) CCN(CC)CC(=O)Nc1c(C)cccc1C(=O)OC = No
27) Cc1cc2nc3ccc(=[N+](C)C)cc-3sc2cc1N = Yes
28) CC(C)(C)c1nnc(NS(=O)(=O)c2ccccc2)s1 = No
29) CCCCCC1Nc2cc(C(F)(F)F)c(S(N)(=O)=O)cc2S(=O)(=O)N1 (configuration not stated) = No
30) CCC1=C[C@@H]2CN(C1)Cc1c([nH]c3ccccc13)[C@@](C(=O)OC)(c1cc3c(cc1OC)N(C)[C@H]1[C@@](O)(C(=O)OC)[C@H](OC(C)=O)[C@]4(CC)C=CCN5CC[C@]31[C@@H]54)C2 = Yes
31) CN=C(N)NC(=O)Nc1c(C)cccc1C = No
32) COc1c(C)c2c(c(O)c1C/C=C(\C)CCC(=O)OCCN1CCOCC1)C(=O)OC2 = Yes
33) CNC(=O)c1cnn(-c2nc(N)c3ncn([C@@H]4O[C@H](CO)[C@@H](O)[C@H]4O)c3n2)c1 = No
34) Cc1cc(C(C)(C)C)c(O)c(C(C)(C)C)c1 = No
35) CN(CC1(C)CCCO1)S(=O)(=O)c1ccc(Cl)c(S(N)(=O)=O)c1 (configuration not stated) = No
36) O=C1Cc2cc(Cl)ccc2N1 = No
37) O=C(OCCN1CCOCC1)c1cccnc1Nc1cccc(C(F)(F)F)c1 = No
38) Cc1ccc(-c2ccccc2C#N)cc1 = No
39) O=C1CC2(CCCC2)CC(=O)N1CCNCC1COc2ccccc2O1 (configuration not stated) = No
40) OCCOCCN1CCN(C(c2ccccc2)c2ccc(Cl)cc2)CC1 (configuration not stated) = No
41) CC(CCc1ccc2c(c1)OCO2)NN (configuration not stated) = No
42) CCCCN(CCCC)C(C(N)=O)c1ccc(OC)cc1 (configuration not stated) = No
43) CN(C)CCOC(c1ccccc1)c1ccc(Br)cc1 (configuration not stated) = No
44) CCN1CCN(c2cc(-c3ccc(F)cc3)c3c(n2)CCCCCC3)CC1 = No
45) CCC(C(=O)NC(=O)NC(C)=O)c1ccccc1 (configuration not stated) = No
46) COc1ccccc1N1CCN(CC(O)COc2cc(OC)c(OC)c(OC)c2)CC1 (configuration not stated) = No
47) CCOC(=O)NNc1nncc2ccccc12 = No

// data source = PubChem BioAssay (NCATS)
